B1: DLC1 (parent)
chain: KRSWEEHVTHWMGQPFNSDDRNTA

variants of: B1; assay: protein stability index of a GFP-peptide fusion (GPS, HEK-293T) (PSI 1-6); higher = more stable; conditions: c terminus: a fixed tail appended;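 note: lentivirally expressed fusions sorted by FACS into six bins by GFP to DsRed ratio, PSI derived from sequencing read proportions per bin multiplied by bin number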
recorded_endpoint: protein stability index
Reply with just the number.

Provide only the value of recorded protein stability index for KRSWEEHVTNWMGQPFNSDDRNTA [H10N]
2.58

Retrieve protein stability index measured for KRSWSEHVTHWMGQPFNSDDRNTA [E5S] and print it.
3.41

Give a short answer stating reported protein stability index for KRSWEEHVTHWMGQPFNFDDRNTA [S18F] .
2.27

Please supply the value of reported protein stability index for the item KRGWEEHVTHWMGQPFNSDDRNTA [S3G]
3.44

Write down protein stability index measured for item NRSWEEHVTHWMGQPFNSDDRNTA [K1N]
3.63

In one line, give reported protein stability index of the entry KRVWEEHVTHWMGQPFNSDDRNTA [S3V] .
3.94
